Assay: Growth inhibition of human Hs 578T cells at 10 uM after 48 hrs by coulter counter analysis
Assay type: functional
Settings: read-out: GI
Metric: inhibition of growth at 10 µM

Molecule	Measured Result
CC(C(=O)Nc1nccs1)N1CCN(c2ccccc2)CC1 (centres undefined)	< 10%
CCOC(=O)c1sc(NC(=O)CCN2CCN(c3ccccc3)CC2)nc1C	< 10%
Cc1csc(NC(=O)C(C)N2CCN(c3ccccc3)CC2)n1 (centres undefined)	< 10%
CCOC(=O)c1sc(NC(=O)C(C)N(CC)CC)nc1C (centres undefined)	< 10%
CCOC(=O)c1sc(NC(=O)CN(C)C)nc1C	< 10%
Cc1cnc(NC(=O)CN2CCN(c3ccccc3)CC2)s1	< 10%
CCOC(=O)c1sc(NC(=O)C(C)N2CCN(C)CC2)nc1C (centres undefined)	< 10%
O=C(CN1CCN(c2ccccc2)CC1)Nc1nc(-c2ccccc2)cs1	< 10%
Cc1cnc(NC(=O)CCN2CCN(c3ccccc3)CC2)s1	< 10%
CCOC(=O)c1sc(NC(=O)C(C)N2CCOCC2)nc1C (centres undefined)	< 10%
CCOC(=O)c1sc(NC(=O)C(C)N2CCCCC2)nc1C (centres undefined)	< 10%
O=C(CCCl)Nc1nc(-c2ccccc2)cs1	< 10%
CCOC(=O)c1sc(NC(=O)CCN2CCOCC2)nc1C	< 10%
CN1CCN(CCC(=O)Nc2nc(-c3ccccc3)cs2)CC1	10.5%
Cc1cnc(NC(=O)CN2CCN(C)CC2)s1	< 10%
CC(C(=O)Nc1nccs1)N1CCN(C)CC1 (centres undefined)	< 10%
O=C(CCN1CCN(c2ccccc2)CC1)Nc1nc(-c2ccccc2)cs1	14%
CCOC(=O)c1sc(NC(=O)CCN2CCN(C)CC2)nc1C	< 10%
Cc1csc(NC(=O)C(C)N2CCN(C)CC2)n1 (centres undefined)	< 10%

====

Tested on: NCI-H226
Assay: Growth inhibition of human NCI-H226 cells at 10 uM after 48 hrs by coulter counter analysis
Type: functional
Conditions: NCI-H226, 48 h, read-out: GI
// reported inhibition of growth at 10 µM for each item listed

Compound	inhibition of growth at 10 µM
CCOC(=O)c1sc(NC(=O)C(C)N2CCOCC2)nc1C (centres undefined)	< 10%
CCOC(=O)c1sc(NC(=O)CCN2CCOCC2)nc1C	< 10%
CCOC(=O)c1sc(NC(=O)C(C)N2CCN(C)CC2)nc1C (centres undefined)	< 10%
CN1CCN(CCC(=O)Nc2nc(-c3ccccc3)cs2)CC1	17.4%
Cc1csc(NC(=O)C(C)N2CCN(c3ccccc3)CC2)n1 (centres undefined)	11.7%
CCOC(=O)c1sc(NC(=O)CCN2CCN(C)CC2)nc1C	< 10%
O=C(CCN1CCN(c2ccccc2)CC1)Nc1nc(-c2ccccc2)cs1	26.6%
CC(C(=O)Nc1nccs1)N1CCN(c2ccccc2)CC1 (centres undefined)	< 10%
Cc1cnc(NC(=O)CN2CCN(c3ccccc3)CC2)s1	< 10%
CCOC(=O)c1sc(NC(=O)CCN2CCN(c3ccccc3)CC2)nc1C	< 10%
O=C(CN1CCN(c2ccccc2)CC1)Nc1nc(-c2ccccc2)cs1	19.1%
Cc1cnc(NC(=O)CN2CCN(C)CC2)s1	< 10%
CC(C(=O)Nc1nccs1)N1CCN(C)CC1 (centres undefined)	< 10%
CCOC(=O)c1sc(NC(=O)CN(C)C)nc1C	< 10%
O=C(CCCl)Nc1nc(-c2ccccc2)cs1	29.3%
Cc1cnc(NC(=O)CCN2CCN(c3ccccc3)CC2)s1	< 10%
CCOC(=O)c1sc(NC(=O)C(C)N2CCCCC2)nc1C (centres undefined)	< 10%
Cc1csc(NC(=O)C(C)N2CCN(C)CC2)n1 (centres undefined)	< 10%
CCOC(=O)c1sc(NC(=O)C(C)N(CC)CC)nc1C (centres undefined)	< 10%
